- Test system: K4 kissing-loop RNA reporter;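 also: bound reporter read as fluorescence of individual clusters on recovered sequencing chips by microscopy, with normalized cluster intensities fitted with a binding model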
- Assay Method Text: apparent KD of K4 kissing-loop reporter; higher = weaker reporter binding
- Run Conditions: Eterna round: R107; input ligand: arginine 13.2 mM
Measured Property: apparent KD of K4 kissing-loop reporter (µM)
Write the value in µM as a bare number.

Worked examples, 2 sequences total:
# Sequence Input, Readout Units, apparent KD of K4 kissing-loop reporter
measured = [
    ("AAAAUAAUCCAGUGAUGUUGGUAACCAGAUACCAGCGACGAAAGUCGCCCUUGGCAGCUGUGGACGUACAAAAUAAGUACGUCCU", "µM", 0.415),
    ("GCAUCCAUGUGAGGAUAUCGAGACGAGUGAUGUUCGGGCACCAGACAGGGAGACCUGUCAAUGGCUUGAGAAGGCACAUGGAUGC", "µM", 0.196),
]

Note: attention shifts to another entry.
apparent KD of K4 kissing-loop reporter reported for this sequence CCGUGGAGUGAUGUUCCACGUUCUACGGAUACCAGCUUUGCCAAAGGCCCUUGGCAGCCGCACCUUGCAGUGAUGUUGUGAGGCU [Same State Theophylline A Gf7] : 0.268

----------
Quick list: apparent KD of MS2 coat protein per entry.
- Test system: MS2 coat protein
- Assay Method Text: apparent KD of MS2 coat protein; higher = weaker reporter binding
- Run Conditions: Eterna round: R107; input ligand: arginine 13.2 mM
Write the value in µM as a bare number.

Worked examples, 3 sequences total:
# Sequence Input, System Under Test, apparent KD of MS2 coat protein [µM]
rows = [
    ("UAUAUAUAUCACUAACUGUUGUGGACGUCUCGAGGACCGGUACGGCCGCCACUCGGGCGGCCUCACAUGAGGAUCACCCAUGUCC [XTryp A #4]", "MS2 coat protein", 0.0929),
    ("AUAAGUAAGUUUUCGUGUUUUAUUACAGAUACCAGACUAUACGUUGUCCCUUGGCAGCUGGAUUACAUGAGGAUCACCCAUGUUG [#25 Exclusion-TheophyllineA]", "MS2 coat protein", 0.019),
    ("GAGCUCGUGGACUGGCGUGCUCCGCUCCGUCGAGGACCGGUACGGCCGCCACUCGACAUGAGGAUCACCCAUGUGUGAGCUCGCU [#1 Exclusion - Tryptophan A Attempt #21 (HarryS)]", "MS2 coat protein", 0.0611),
]

// sequence AAAUGUACGUCGGCCGCCACUGCGCUGAAGACAGUCACAUGAGGAUCACCCAUGUACGACAAGGGUAGGACCGGGAUGUGAGGGU [Rate] , assay MS2 coat protein, apparent KD of MS2 coat protein value: 0.0451

// sequence GUAGCUAUCGCGGCCGCCACUAAACCGGAAACGGAACAGGAGGAUCACCCUUGUGGCGAAAGCCAUAGGACCGGGCGAUAGCUAC [TryBS - Double Magnet system] , assay MS2 coat protein, apparent KD of MS2 coat protein value: 0.224

// sequence GGACUAACCAGAAGGAGCGGCACGCAGAAACUGCUAAUUCCUCCGCACGAGGAUCACCCGUGUCAGGUAGGUCGCUGGUUAGUCG [ArgBX 28] , assay MS2 coat protein, apparent KD of MS2 coat protein value: 0.0149

----------
- Test system: MS2 coat protein
- Assay Method Text: apparent KD of MS2 coat protein; higher = weaker reporter binding
- Run Conditions: Eterna round: R107; input ligand: tryptophan 2.4 mM
Quick list: apparent KD of MS2 coat protein per entry.
Write the value in nM as a bare number.

# Sequence Input, Readout Units, apparent KD of MS2 coat protein
measured = [
    ("UACUUACAUGAGGAUCACCCAUGUGGCGAAGGAGCGGCAUGAGGGCCAGGUAGGUCGCGCCAACAUACAUACAUGAGGAUCUCCC [Same State Arginine A 4]", "nM", 93.1),
    ("GGUGGAGGCGUGGGACUUGUCUGAACGGAUACCAGCCACAUCACGGGCCCUUGGCAGCUGUACAUGAGGAUCACCCAUGUCGGUC [Atestevete]", "nM", 34.8),
    ("GGUGAUCCGUGCUGCCGGAUCAUCGGUGAUACCAGCAUCGAAAGAUGCCCUUGGCAGCACCAACAUGAGGAUCACCCAUGUAAUA [(M)'-(T)'-(M)''-(T1)-(T2)-(M1)-(M2)_Design5]", "nM", 163),
    ("UGAGUUCGCUGAUGGGCUACGUCAGGUGAUACCAGCCACUCCCGCGGCCCUUGGCAGCACAUGAGGAUCACCCAUGUAGAGCUUG [Lazaceonus]", "nM", 14.1),
    ("CAUGAGAGAUUGUUUUGUGACUCUAACGAUACCAGAGUAGGACUUCUCCCUUGGCAGCGUGUGACAUGAGGAUCACCCAUGUCCA [theeternabot_exclusion_MS2_Theo_A_5]", "nM", 11.3),
]

apparent KD of MS2 coat protein reported for this sequence ACAUGAGGAUCACCCAUGUAGCCUAGGGAAGGAGCGUCGUAAGAGACAGGUAGGUCGCCCGCAUGUGAGUCAUCCAUGACGAGGG [#18 Same State - Arginine A] : 21.1

apparent KD of MS2 coat protein reported for this sequence AAUCAUAGGGCGGCCGCCACUAAACAUGAGGAUCACCCAUGUCUCGAGGGCUUGCGUUUGGGAAGUAGGACCGGGCCAAUAGUAA [Tryp B Ex Mod2] : 16.1

apparent KD of MS2 coat protein reported for this sequence UUGGCAGCAUGGGUGGCUGCCAAGGCUGAUACCAGCCACGAAAGUGGCCCUUGGCAGCAGCAAACAUGAGGAUCACCCAUGUUAA [(T)''-(M)'-(T)'-(Theo)-(Ms2)_Design3] : 93.3

apparent KD of MS2 coat protein reported for this sequence AGUCUUAUAGGAAGGAGCGCAAUCAUCACAUGAGGAUCACCCAUGUCAAGGUGAGAGUCAUUGCAGGUAGGUCGCCUAACUAAGA [Same State - Arginine B (Freestyle 9)] : 213

apparent KD of MS2 coat protein reported for this sequence AGGGAAUGAAUAGAAUGAGAUGACACAGAAGGAGCGCCGAUUAAGGCAGGUAGGUCGCUGACAACAUGAGGAUCACCCAUGUUAA [#11 Same State - Arginine A] : 20.6

apparent KD of MS2 coat protein reported for this sequence AUAAGUGUAAGAUACCGCACGCUGGAGGAAGGAGCGCGGAUUAACGCAGGUAGGUCGCCUCGUACAUGAGGAUCACCCAUGUGGC [#14 Same State - Arginine A] : 35.2

Taken from the supplement of paper PMC9170038.
